B1: glmS ribozyme (parent)
chain: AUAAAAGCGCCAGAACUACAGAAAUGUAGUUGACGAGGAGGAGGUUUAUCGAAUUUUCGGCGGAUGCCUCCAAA

Variants of: B1
Assay: self-cleavage kobs at 640 uM GlcN6P; higher = faster cleavage; RNA array
Conditions: with glucosamine-6-phosphate
Variants at the floor of the assay were thinned out.
Form field: self-cleavage kobs at 640 uM GlcN6P (one value per entry).
Experimental Endpoint: self-cleavage kobs at 640 uM GlcN6P (s⁻¹)

> print(dat)
                       sequence.change  bound.sign  numeric.readout
 1                 A36U G44C C61U C71A           <            1e-05
 2                      A39C G60U G66U           <            1e-05
 3                           A33C U54G           =         8.56e-05
 4                       A6U U65G C70U           <            1e-05
 5                      A12C U54C C71U           =          0.00422
 6                           U57C C67U           =         3.88e-05
 7                      G41A G51C A64C           <            1e-05
 8                      G41A G60A G63U           <            1e-05
 9                           A14G U46C           =          0.00207
10            A14G C34U A52C C68U C70U           =         8.57e-05
11                      A15G U54A G66C           =         0.000369
12                           C10G U30A           <            1e-05
13                       G9U C11G G41U           <            1e-05
14                           A42G U56G           =          0.00411
15                      U45G C50U A64G           <            1e-05
16                           A15U G29A           =         0.000218
17  C16G G35C A48G U57C G62A C67A U69A           <            1e-05
18                      G29A G35U A42U           <            1e-05
19       A15C U45G U56C C58A C67G C68A           =         8.64e-05
20                      C16G G41C G59A           <            1e-05
21                      U54A C61G C71G           =         7.31e-05
22                           U30G A52C           <            1e-05
